Listed next: entries and their corresponding logP.
assay: method code SF-HPLC, from DOI: 10.1021/jm00151a006, PMID: 3510299
Field format: numeric only.

Answered cases to consult:
* CN(Cc1cccc(Cl)c1)N=O | 1.46
* CN(Cc1ccc([N+](=O)[O-])cc1)N=O | 0.82
* COc1cccc(CN(C)N=O)c1 | 1.6
* CN(Cc1cccc(C(F)(F)F)c1)N=O | 1.99
* COc1ccc(CN(C)N=O)cc1 | 1.62
* Cc1ccc(CN(C)N=O)cc1 | 2.14
* CN(Cc1ccc(C#N)cc1)N=O | 0.99
* Cc1cccc(CN(C)N=O)c1 | 1.96
* CN(Cc1ccc(F)cc1)N=O | 1.67
* CN(Cc1cccc([N+](=O)[O-])c1)N=O | 1.17

## Input Which measured logP value corresponds to CN(Cc1ccc(Cl)cc1)N=O ?
## Output 2.19

## Input Report logP for CN(Cc1ccccc1)N=O please.
## Output 1.55
